Reference source for all entries: patent US20190367578A1

Molecular target: T1, human GIP receptor (human) (UniProt P48546)
T1 sequence (looked up): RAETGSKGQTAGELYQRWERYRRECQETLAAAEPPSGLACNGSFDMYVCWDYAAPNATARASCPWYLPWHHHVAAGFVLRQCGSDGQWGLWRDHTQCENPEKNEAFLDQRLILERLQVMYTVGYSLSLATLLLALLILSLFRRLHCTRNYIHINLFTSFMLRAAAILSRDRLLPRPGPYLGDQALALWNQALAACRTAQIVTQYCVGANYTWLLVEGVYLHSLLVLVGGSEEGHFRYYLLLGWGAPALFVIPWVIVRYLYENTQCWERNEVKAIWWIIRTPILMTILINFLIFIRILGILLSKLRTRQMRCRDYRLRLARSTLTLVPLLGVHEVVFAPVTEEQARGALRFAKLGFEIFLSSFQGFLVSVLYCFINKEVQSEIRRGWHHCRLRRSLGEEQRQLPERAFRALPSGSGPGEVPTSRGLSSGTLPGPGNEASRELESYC
Experiment: cell-based or functional assay
*1 amine or outer side, *2 acyl side, *3 side chain or, on linkers, in order; H or OH if unused. Where no end group is shown, it is not given here. Side-chain parts run from the residue outwards. [ ]: non-standard residue; d: D form. The star is where a group is joined. C20 diacid = O=C(O)CCCCCCCCCCCCCCCCCCC(=O)*; C18 diacid = O=C(O)CCCCCCCCCCCCCCCCC(=O)*; γGlu = O=C(O)[C@H](CCC(=O)[*:2])N[*:1]; Nle = CCCC[C@H](N)C(=O)O; AEEA = NCCOCCOCC(=O)O; Aib = CC(C)(N)C(=O)O
reportedEndpoint: log10 of EC50 (pM), hGIP-R CRE Luc, 0.2% HSA (log10 of the value in pM)

1. Y[Aib]EGTFISDYSIA[Nle]DAIRQQDFVK([γGlu-γGlu-γGlu-C18 diacid])WLLAQKG
1.86
2. Ac-[dY]AEGTFISDYSIA[Nle]DKIHQEDFVK([γGlu-γGlu-γGlu-4‑(aminomethyl)cyclohexanecarbonyl-C20 diacid])WLLAQKG
2.74
3. Y[Aib]EGTFISDYSIA[Nle]DKIHQQDFVK([γGlu-γGlu-γGlu-C18 diacid])WLLAQKGKEEDWKHNITQ
0.95
4. Ac-[dY]AEGTFISDYSIA[Nle]DKIRQEDFVK([AEEA-AEEA-γGlu-C18 diacid])WLLAQKG
1.40
5. Y[Aib]EGTFISDYSIA[Nle]DKIRQQDFVK([AEEA-AEEA-γGlu-C18 diacid])WLLAQKGKEEDWKHNITQ
0.61
6. Y[Aib]EGTFISDYSIA[Nle]DKIHQQDFVK([AEEA-AEEA-γGlu-C18 diacid])WLLAQKGKEEDWKHNITQ
0.74
7. Y[Aib]EGTFISDYSIA[Nle]DKIRQQDFVK([γGlu-γGlu-γGlu-4‑(aminomethyl)cyclohexanecarbonyl-C20 diacid])WLLAQKGKEEDWKHNITQ
1.34
8. Y[Aib]EGTFISDYSIA[Nle]DKIHQQDFVK([AEEA-AEEA-γGlu-C18 diacid])WLLAQKGKEDDWKHNITQ
0.78
9. Y[Aib]EGTFISDYSIA[Nle]DKIRQEDFVK([γGlu-γGlu-γGlu-4‑(aminomethyl)cyclohexanecarbonyl-C20 diacid])WLLAQKG
2.40
10. Y[Aib]EGTFISDYSIA[Nle]DKIHQQDFVK([γGlu-γGlu-γGlu-C18 diacid])WLLAQKG
1.70
11. Ac-[dY]AEGTFISDYSIADDKIRQEDFVK([AEEA-AEEA-γGlu-C18 diacid])WLLAQKG
1.96
12. Y[Aib]EGTFISDYSIA[Nle]DKIRQQDFVK([γGlu-γGlu-γGlu-C18 diacid])WLLAQKGKEEDWKHNITQ
0.65
13. Y[Aib]EGTFISDYSIA[Nle]DKIRQQDFVK([AEEA-AEEA-γGlu-4‑(aminomethyl)cyclohexanecarbonyl-C20 diacid])WLLAQKGKEEDWKHNITQ
1.15
14. Y[Aib]EGTFISDYSIA[Nle]DKIRQQDFVK([γGlu-γGlu-γGlu-C18 diacid])WLLAQKGKENDWKHNITQ
1.30
15. Y[Aib]EGTFISDYSIA[Nle]DAIRQQDFVK([γGlu-γGlu-γGlu-4‑(aminomethyl)cyclohexanecarbonyl-C20 diacid])WLLAQKG
2.42
